- assay target: NpF2164g6 (1038–1206), holo-protein, not biotinylated
- Sequence (main, as listed by the source): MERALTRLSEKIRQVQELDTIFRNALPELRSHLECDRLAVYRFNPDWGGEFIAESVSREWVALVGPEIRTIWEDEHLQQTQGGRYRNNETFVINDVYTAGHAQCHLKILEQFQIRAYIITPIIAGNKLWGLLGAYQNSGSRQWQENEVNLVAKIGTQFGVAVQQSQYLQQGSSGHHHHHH
- assay remarks: thermal reversion kinetics (UV-vis); observed thermal reversion rate of NpF2164g6 against binder concentration, gives Kd,L of the light (Pg) state; 25 °C, PBS pH 7.2
Consider the following binders and their measured Kd readings.

* BNp-Red-1.0 (binder of NpF2164g6-Red state) (designed binder) MKLATIDQWLLKNAKEDAIAELKKAGITSDAYFNLINDAFDVDYVNYRKNKILKAHAGSSGLEHHHHHH | > 200 µM

Kindly review the next binder as well.
Enquiry: So what's the measured Kd for this one? BNp-Red-1.2 (designed binder) MKLATIDQWLLKNAKEDAIAELKKAGITADAYFNWINNAWDVDYVNYRKNKILKAHAGSSGLEHHHHHH
Return: > 30 µM
